Data provenance is ChEMBL document CHEMBL1817547.

- System: SH-SY5Y
- protocol notes: Cytotoxicity against human SH-SY5Y cells assessed as cell viability at 2.5 uM
- Format: cell-based
assay endpoint: Activity

CN1CCN(c2ccc(/C=C/C(=O)/C=C/c3ccc(N4CCN(C)CC4)cc3)cc2)CC1 Non-toxic
CN1CCN(c2ccc(/C=C3\CN(C)C/C(=C\c4ccc(N5CCN(C)CC5)cc4)C3=O)cc2)CC1 Non-toxic
CN1CCN(c2ccc(/C=C3\CCC/C(=C\c4ccc(N5CCN(C)CC5)cc4)C3=O)cc2)CC1 Non-toxic
CN1CCN(c2ccc(/C=C3\CNC/C(=C\c4ccc(N5CCN(C)CC5)cc4)C3=O)cc2)CC1 Non-toxic
CN1CCN(c2ccc(/C=C/c3cccc(/C=C/c4ccc(N5CCN(C)CC5)cc4)n3)cc2)CC1 Non-toxic

Response field Activity (SH-SY5Y) for item CN1CCN(c2ccc(/C=C/C(=O)c3ccc(C(=O)/C=C/c4ccc(N5CCN(C)CC5)cc4)cc3)cc2)CC1 : Non-toxic

Entry CN1CCN(c2ccc(/C=C/C(=O)CC(=O)/C=C/c3ccc(N4CCN(C)CC4)cc3)cc2)CC1 ; assay system SH-SY5Y; Activity recorded at Non-toxic

// assay SH-SY5Y, entry CN1CCN(c2ccc(/C=C/C(=O)c3cccc(C(=O)/C=C/c4ccc(N5CCN(C)CC5)cc4)c3)cc2)CC1 , Activity value = Non-toxic
